Reference source for all entries: the nanobody polyreactivity screen of Harvey et al. (2022)

# Assay explanation: yeast display, Sf9 membrane polyspecificity reagent, FACS + sequencing; frameworks hold sequencing errors
Quantity: polyreactivity (PSR sort gate)

| Macromolecule sequence | Assay result |
| --- | --- |
| QVQLVESGGGLVQAGGSLRLSCAASGSIFVYYTMGWYRQAPGKERELVAAISFSGGSTYADSVKGRFTISRDNAKNTVYLQMNSLKPEDTAVYFCNADRWLYTPSKFVEMDYWGQGTQVTVSS | low polyreactivity |
| QVQLVESGGALVQAGGSLRLSCAASGRTFYFYTMGWYRQAPGKERDLVAAISWSGGSTYYADSVKGRFTISRDTAKNNFYLQMKRLKPEDTAVYYCAASSRWEQSKDQFYYWGQGTHVTVSS | low polyreactivity |
| QVQLVESGGGLVQAGGSLRLSCAASGFIFVRNAMVWYRQAPGIERELVAAIRWSGGSTYYADSVKGRFTISRDNAKNTVYLQMNSLKPEDTAVYYCAKEPPPVKGDYWGQGTQVTVSS | low polyreactivity |
| QVHLVESGGGLVQAGGSLRLSCAASGSTFRYYAMGWYRQAPGKERELVAAIRDSGGSTYYADSVKGRFTISRDNAKNTVYLQMNSLKPEDTAVYYCARRAYRWYSAYDSWGQGTQVTVSS | high polyreactivity |
| QVQLVESGGGLVQAGGSLRLSCAASGLIFRWYAMGWYRQAPGKEREMVAAISRRGGTTNYADSVKGRFTISRDNAKNTVYLQMTSLKPEDTAVYYCAADYQSVGGAEYDYWGQGTQVTVSS | high polyreactivity |
